assay: Volume of distribution at steady state in rat at 2.5 mg/kg, iv; assay type: ADME, organism-based; details: in vivo, read-out: Vdss
measurement name: Vd (L/kg)

A: COc1cc(NC(C(=O)c2c[nH]c3ccccc23)c2ccccc2)cc(OCCO)c1 (single isomer, unassigned; (+))
B: COc1cc(NC(C(=O)c2c[nH]c3ccccc23)c2ccccc2)cc(OC)c1 (single isomer, unassigned; (+))
-- ask Choose between A and B : whose measured Vd value is numerically larger? Kindly state the label of the option you pick.
-- reply B

---

test: Protein binding in human plasma; type: ADME, cell-free; settings: read-out: PPB (converted)
measurement name: fraction unbound

A: COc1cc(NC(C(=O)c2c[nH]c3ccccc23)c2ccccc2)cc(OCCO)c1 (single isomer, unassigned; (+))
B: COc1cncc(NC(C(=O)c2c[nH]c3ccccc23)c2ccccc2)c1 (stereo not drawn)
-- ask Which has the smaller recorded fraction unbound, A or B ? Field: selected label. Fill in the label of the entry you choose.
-- reply B
(B: 0.005, A: 0.01)

---

In this section we review reported pIC50 values for a set of compounds.
target: Cytochrome P450 2D6 (Homo sapiens, UniProt P10635)
Sequence (P10635 whole entry): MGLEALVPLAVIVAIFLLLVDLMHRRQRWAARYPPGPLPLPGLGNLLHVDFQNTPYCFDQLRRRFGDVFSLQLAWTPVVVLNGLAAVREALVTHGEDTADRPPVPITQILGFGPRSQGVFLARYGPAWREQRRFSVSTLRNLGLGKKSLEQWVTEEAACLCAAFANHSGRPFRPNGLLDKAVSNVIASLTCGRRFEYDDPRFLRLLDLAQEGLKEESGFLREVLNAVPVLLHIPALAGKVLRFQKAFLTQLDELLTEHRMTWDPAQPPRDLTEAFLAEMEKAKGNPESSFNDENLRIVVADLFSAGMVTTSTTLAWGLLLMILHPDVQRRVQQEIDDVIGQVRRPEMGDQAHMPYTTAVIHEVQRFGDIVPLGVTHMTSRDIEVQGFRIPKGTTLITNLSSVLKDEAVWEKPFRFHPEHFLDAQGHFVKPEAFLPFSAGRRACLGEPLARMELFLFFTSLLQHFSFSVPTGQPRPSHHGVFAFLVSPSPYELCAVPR
pIC50: −log10 of the molar value.

Reference set, count: 3
> print(dat)
                                   compound  measurement.name  result
1  COc1cc(NC(C(=O)c2c[nH]c3ccccc23)c2ccccc2)cc(OCCO)c1 (single isomer, unassigned; (+))             pIC50  < 5.00
2  COc1cc(NC(C(=O)c2c[nH]c3ccccc23)c2ccccc2)cc(OC)c1 (stereo in doubt; 12b)             pIC50  < 5.00
3  COc1cccc(NC(C(=O)c2c[nH]c3ccccc23)c2nc3ccccc3o2)c1 (stereo not given)             pIC50  < 5.00

-- ask Query: pIC50; subject: COc1cc(NC(C(=O)c2c[nH]c3ccccc23)c2ccccc2)cc(OC)c1 (racemic)
-- reply < 5.00

-- ask Also COc1cncc(NC(C(=O)c2c[nH]c3ccccc23)c2ccccc2)c1 (stereo not given) ?
-- reply 5.08

---

assay: Solubility of the compound in DMSO solution at pH 7.4; assay type: physicochemical; conditions: read-out: solubility
measurement name: solubility (µM)

> print(dat)
                                   molecule  measured.number
1  COc1cncc(NC(C(=O)c2c[nH]c3ccccc23)c2ccccc2)c1 (stereo not drawn)               42

1: COc1cc(NC(C(=O)c2c[nH]c3ccccc23)c2ccccc2)cc(OCCCO)c1 (stereo not drawn)
2: COc1cccc(NC(C(=O)c2c[nH]c3ccccc23)c2nc3ccccc3o2)c1 (stereo not drawn)
-- ask Between 1 and 2 , which one shows the larger solubility value? Record your answer as the label of the chosen record.
-- reply 1
(1: 30 µM, 2: 1 µM)

---

test system: dengue virus type 2; test: Antiviral activity against Dengue virus 2 Rega infected in African green monkey Vero cells assessed as reduction in viral yield after 4 days by qRT-PCR analysis; assay type: functional, organism-based; conditions: Dengue virus, Rega, Vero, 96 h
pEC50: −log10 of the molar value.
measurement name: pEC50

> print(dat)
                                   compound  measurement.name  measured.number
1  COc1cc(NC(C(=O)c2c[nH]c3ccccc23)c2ccccc2)cc(OCCN(C)C)c1 (stereo not given)             pEC50             5.77

P: COc1ccc(OC)c(NC(C(=O)c2c[nH]c3ccccc23)c2ccccc2)c1 (stereo not given)
Q: COc1cccc(NC(C(=O)c2c[nH]c3ccccc23)c2ccc(C)cc2)c1 (stereo not given)
R: O=C(c1c[nH]c2ccccc12)C(Nc1cccnc1)c1ccccc1 (stereo not given)
-- ask Order field: pEC50 | Direction: descending (largest first) // format: requested-order list of labels
-- reply Q, P, R
